Entries and their Drug metabolism
Target: UDP-glucuronosyltransferase 1A1 (Homo sapiens, UniProt P22309)
Sequence (P22309 whole entry): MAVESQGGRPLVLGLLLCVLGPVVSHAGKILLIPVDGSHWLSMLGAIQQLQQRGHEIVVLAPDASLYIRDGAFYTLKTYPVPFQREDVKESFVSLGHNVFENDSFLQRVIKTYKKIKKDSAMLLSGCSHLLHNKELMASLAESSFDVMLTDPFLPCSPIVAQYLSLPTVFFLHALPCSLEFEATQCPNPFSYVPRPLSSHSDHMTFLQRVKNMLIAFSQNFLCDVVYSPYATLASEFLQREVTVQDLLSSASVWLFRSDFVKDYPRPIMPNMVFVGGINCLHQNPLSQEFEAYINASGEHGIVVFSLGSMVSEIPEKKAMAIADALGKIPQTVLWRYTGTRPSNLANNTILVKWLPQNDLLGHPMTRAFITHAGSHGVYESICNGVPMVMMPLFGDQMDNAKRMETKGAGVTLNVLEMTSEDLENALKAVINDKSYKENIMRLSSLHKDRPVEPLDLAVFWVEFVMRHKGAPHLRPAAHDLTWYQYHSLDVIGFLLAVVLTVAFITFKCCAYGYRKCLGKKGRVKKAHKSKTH
Assay: Activity of human recombinant UGT1A1 expressed in baculovirus-infected Sf9 cells assessed as glucuronidation activity per mg of protein at 100 to 200 uM after 60 mins in presence of 3 mM UDP-GlcUA
Assay type: ADME
Conditions: sf9, 1 h

>  <compound>
CCN(CC)CCNc1ccc2ncn3c4ccc(O)cc4c(=O)c1c23 [C-1311]

>  <Drug metabolism>
< 0.1 nmol/min/mg

$$$$
>  <compound>
CN(C)CCCNc1ccc2nnn3c4ccc(O)cc4c(=O)c1c23

>  <Drug metabolism>
< 0.1 nmol/min/mg

$$$$

###

Biological target: UDP-glucuronosyltransferase 1A9 (Homo sapiens, UniProt O60656)
Sequence (O60656 whole entry): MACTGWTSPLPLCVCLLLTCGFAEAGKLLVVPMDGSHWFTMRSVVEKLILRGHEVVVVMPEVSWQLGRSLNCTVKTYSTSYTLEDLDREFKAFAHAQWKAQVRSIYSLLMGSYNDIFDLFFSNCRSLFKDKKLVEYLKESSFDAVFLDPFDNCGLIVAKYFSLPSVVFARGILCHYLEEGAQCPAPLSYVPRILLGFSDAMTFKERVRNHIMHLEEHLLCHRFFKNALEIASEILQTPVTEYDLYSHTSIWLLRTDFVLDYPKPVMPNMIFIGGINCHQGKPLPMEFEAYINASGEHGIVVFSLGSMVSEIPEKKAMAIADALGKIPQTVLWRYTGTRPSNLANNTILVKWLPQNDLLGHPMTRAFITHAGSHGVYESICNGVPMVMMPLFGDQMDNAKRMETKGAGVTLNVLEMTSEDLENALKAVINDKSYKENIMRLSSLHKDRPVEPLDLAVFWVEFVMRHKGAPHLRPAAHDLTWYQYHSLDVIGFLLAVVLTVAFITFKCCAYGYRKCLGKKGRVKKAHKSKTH
Experiment: Activity of human recombinant UGT1A9 expressed in baculovirus-infected Sf9 cells assessed as glucuronidation activity per mg of protein at 100 to 200 uM after 60 mins in presence of 3 mM UDP-GlcUA
Type: ADME
Conditions: sf9, 1 h
compounds and their reported Drug metabolism

>  <item.smiles>
CCN(CC)CCNc1ccc2ncn3c4ccc(O)cc4c(=O)c1c23

>  <Drug metabolism [nmol/min/mg]>
0.2

$$$$
>  <item.smiles>
CN(C)CCCNc1ccc2nnn3c4ccc(O)cc4c(=O)c1c23

>  <Drug metabolism [nmol/min/mg]>
0.2

$$$$

###

Target: UDP-glucuronosyltransferase 1A9 (Homo sapiens, UniProt O60656)
Assay: Inhibition of human recombinant UGT1A9 activity expressed in baculovirus-infected Sf9 cells
Type: ADME
pKi: −log10 of the molar value.
# Lookup of reported pKi keyed by entry

>  <item.smiles>
CCN(CC)CCNc1ccc2ncn3c4ccc(O)cc4c(=O)c1c23

>  <measurement.target>
UDP-glucuronosyltransferase 1A9 (Homo sapiens, UniProt O60656)

>  <pKi>
3.02

$$$$
>  <item.smiles>
CN(C)CCCNc1ccc2nnn3c4ccc(O)cc4c(=O)c1c23

>  <measurement.target>
UDP-glucuronosyltransferase 1A9 (Homo sapiens, UniProt O60656)

>  <pKi>
2.78

$$$$

###

Test: Drug metabolism in human intestinal microsomes assessed as glucuronidation per mg of protein after 60 mins by Michaelis-Menten equation in presence of 3 mM UDP-GlcUA
Type: ADME, Intestine, Microsome
Conditions: 1 h
Consider the following compounds and their measured Vmax readings.

>  <item.smiles>
CN(C)CCCNc1ccc2nnn3c4ccc(O)cc4c(=O)c1c23

>  <Vmax [nmol/min/mg]>
0.413

$$$$
>  <item.smiles>
CCN(CC)CCNc1ccc2ncn3c4ccc(O)cc4c(=O)c1c23

>  <Vmax [nmol/min/mg]>
0.823

$$$$

###

Biological target: UDP-glucuronosyltransferase 1A3 (Homo sapiens)
Sequence (P35503 whole entry): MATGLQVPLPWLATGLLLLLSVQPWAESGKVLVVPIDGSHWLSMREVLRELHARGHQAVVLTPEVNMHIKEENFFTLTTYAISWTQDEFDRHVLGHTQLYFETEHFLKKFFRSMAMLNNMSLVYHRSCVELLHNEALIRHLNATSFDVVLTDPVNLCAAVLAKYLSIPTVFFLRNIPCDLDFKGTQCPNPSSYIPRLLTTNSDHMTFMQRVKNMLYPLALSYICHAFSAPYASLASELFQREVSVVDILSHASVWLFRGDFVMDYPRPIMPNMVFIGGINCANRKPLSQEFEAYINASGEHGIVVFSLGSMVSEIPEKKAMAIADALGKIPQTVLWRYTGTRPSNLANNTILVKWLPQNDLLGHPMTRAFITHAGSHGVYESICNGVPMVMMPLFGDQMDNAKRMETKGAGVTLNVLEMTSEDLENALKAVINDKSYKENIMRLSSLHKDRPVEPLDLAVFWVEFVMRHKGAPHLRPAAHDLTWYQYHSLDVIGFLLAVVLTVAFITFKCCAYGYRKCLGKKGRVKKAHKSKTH
Test: Activity of human recombinant UGT1A3 expressed in baculovirus-infected Sf9 cells assessed as glucuronidation activity per mg of protein at 100 to 200 uM after 60 mins in presence of 3 mM UDP-GlcUA
Format: ADME
Conditions: sf9, 1 h
# Drug metabolism per entry

>  <item.smiles>
CCN(CC)CCNc1ccc2ncn3c4ccc(O)cc4c(=O)c1c23

>  <Drug metabolism>
< 0.1 nmol/min/mg

$$$$
>  <item.smiles>
CN(C)CCCNc1ccc2nnn3c4ccc(O)cc4c(=O)c1c23

>  <Drug metabolism>
< 0.1 nmol/min/mg

$$$$

###

Test system: Liver microsome
Experiment: Drug metabolism in human liver microsomes assessed as glucuronidation per mg of protein after 60 mins by Michaelis-Menten equation in presence of 3 mM UDP-GlcUA
Format: ADME
Conditions: 1 h

>  <compound>
CCN(CC)CCNc1ccc2ncn3c4ccc(O)cc4c(=O)c1c23 [C-1311]

>  <measurement.target>
Liver microsome

>  <unit.name>
nmol/min/mg

>  <Vmax>
0.156

$$$$
>  <compound>
CN(C)CCCNc1ccc2nnn3c4ccc(O)cc4c(=O)c1c23

>  <measurement.target>
Liver microsome

>  <unit.name>
nmol/min/mg

>  <Vmax>
0.386

$$$$

###

Target: UDP-glucuronosyltransferase 1A7 (Homo sapiens)
Sequence (Q9HAW7 whole entry): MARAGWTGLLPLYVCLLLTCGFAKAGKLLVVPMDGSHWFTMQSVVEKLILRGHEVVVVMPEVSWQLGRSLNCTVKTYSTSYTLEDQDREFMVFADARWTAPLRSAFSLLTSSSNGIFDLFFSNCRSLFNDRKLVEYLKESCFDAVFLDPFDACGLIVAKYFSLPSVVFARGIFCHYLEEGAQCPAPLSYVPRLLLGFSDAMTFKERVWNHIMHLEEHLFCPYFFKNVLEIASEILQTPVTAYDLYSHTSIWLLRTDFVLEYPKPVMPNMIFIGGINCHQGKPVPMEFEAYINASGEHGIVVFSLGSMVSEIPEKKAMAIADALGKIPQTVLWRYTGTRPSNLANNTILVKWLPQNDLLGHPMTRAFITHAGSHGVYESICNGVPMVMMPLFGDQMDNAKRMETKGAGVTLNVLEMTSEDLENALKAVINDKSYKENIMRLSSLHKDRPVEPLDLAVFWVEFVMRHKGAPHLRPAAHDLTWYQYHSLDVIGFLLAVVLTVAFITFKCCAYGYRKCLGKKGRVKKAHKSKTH
Experiment: Activity of human recombinant UGT1A7 expressed in baculovirus-infected Sf9 cells assessed as glucuronidation activity per mg of protein at 100 to 200 uM after 60 mins in presence of 3 mM UDP-GlcUA
Assay type: ADME
Conditions: sf9, 1 h

>  <item.smiles>
CCN(CC)CCNc1ccc2ncn3c4ccc(O)cc4c(=O)c1c23

>  <measurement.target>
UDP-glucuronosyltransferase 1A7 (Homo sapiens)

>  <Drug metabolism (nmol/min/mg)>
0.2

$$$$
>  <item.smiles>
CN(C)CCCNc1ccc2nnn3c4ccc(O)cc4c(=O)c1c23

>  <measurement.target>
UDP-glucuronosyltransferase 1A7 (Homo sapiens)

>  <Drug metabolism (nmol/min/mg)>
0.2

$$$$

###

Test: Drug metabolism in human intestinal microsomes assessed as glucuronidation after 60 mins by Michaelis-Menten equation in presence of 3 mM UDP-GlcUA
Format: ADME, Intestine, Microsome
readout.name: Km at 1 h (µM)

>  <item.smiles>
CN(C)CCCNc1ccc2nnn3c4ccc(O)cc4c(=O)c1c23

>  <recorded.result>
76.9

$$$$
>  <item.smiles>
CCN(CC)CCNc1ccc2ncn3c4ccc(O)cc4c(=O)c1c23

>  <recorded.result>
159

$$$$

###

Biological target: UDP-glucuronosyltransferase 1A10 (Homo sapiens, UniProt Q9HAW8)
Sequence (Q9HAW8 whole entry): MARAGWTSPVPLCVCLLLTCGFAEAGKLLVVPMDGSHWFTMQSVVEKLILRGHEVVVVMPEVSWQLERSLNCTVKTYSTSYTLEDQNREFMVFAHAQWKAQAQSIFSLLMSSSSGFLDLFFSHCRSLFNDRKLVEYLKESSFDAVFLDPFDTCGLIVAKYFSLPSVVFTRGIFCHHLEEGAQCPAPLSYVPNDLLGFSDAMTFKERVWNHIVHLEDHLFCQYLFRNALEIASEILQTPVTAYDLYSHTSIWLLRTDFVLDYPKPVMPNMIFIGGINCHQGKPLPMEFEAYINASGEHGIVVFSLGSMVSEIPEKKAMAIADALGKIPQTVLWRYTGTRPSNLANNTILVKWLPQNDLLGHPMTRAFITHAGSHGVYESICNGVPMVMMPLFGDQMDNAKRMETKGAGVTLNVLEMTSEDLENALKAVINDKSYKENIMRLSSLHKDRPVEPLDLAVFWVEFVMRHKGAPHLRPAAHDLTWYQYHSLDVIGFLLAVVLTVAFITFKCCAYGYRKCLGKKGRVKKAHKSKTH
Experiment: Activity of human recombinant UGT1A10 expressed in baculovirus-infected Sf9 cells assessed as glucuronidation activity per mg of protein at 100 to 200 uM after 60 mins in presence of 3 mM UDP-GlcUA
Type: ADME
Conditions: sf9, 1 h
The entries below are paired with their reported Drug metabolism.

>  <item.smiles>
CCN(CC)CCNc1ccc2ncn3c4ccc(O)cc4c(=O)c1c23

>  <Drug metabolism>
> 0.5 nmol/min/mg

$$$$
>  <item.smiles>
CN(C)CCCNc1ccc2nnn3c4ccc(O)cc4c(=O)c1c23

>  <Drug metabolism>
> 0.5 nmol/min/mg

$$$$

###

Target: UDP-glucuronosyltransferase 1A9 (Homo sapiens, UniProt O60656)
Assay: Activity of human recombinant UGT1A9 expressed in baculovirus-infected Sf9 cells assessed as enzyme-mediated glucuronidation per mg protein at 235 uM after 60 mins by Michaelis-Menten equation in presence of 3 mM UDP-GlcUA
Format: ADME
Details: sf9, 1 h

>  <item.smiles>
CCN(CC)CCNc1ccc2ncn3c4ccc(O)cc4c(=O)c1c23

>  <Drug metabolism>
0.14 nmol/min/mg

$$$$
